From: ChEMBL document CHEMBL1122149

# TARGET: GABA-A receptor; anion channel
# ASSAY DETAILS: In vitro inhibition of [3H]diazepam binding to benzodiazepine receptor in rat cerebral cortical membrane
METRIC: Ki (µM)
Give just the number in µM; leave the unit off.

Exercise: Using the record for CC(=O)c1cc2c3ccccc3nc-2c[nH]1 , state its measured Ki.
Solution: 0.058

Exercise: Using the record for CCOC(=O)c1cc2c(cn1)[nH]c1ccccc12 , state its measured Ki.
Solution: 0.0011

Exercise: Please supply the value of reported Ki for the item O=C(O)c1cc2c3ccccc3nc-2c[nH]1
Solution: 24

Exercise: Name the recorded Ki of the compound listed here: Cc1nccc2c1[nH]c1ccccc12
Solution: 12.4

Exercise: Item O=C(O)C1Cc2c([nH]c3ccccc23)C(c2ccccc2)N1 (centres undefined) : provide Ki
Solution: 6.11

Exercise: Tell me measured Ki for COC(=O)C1Cc2c([nH]c3ccccc23)C(c2ccccc2)N1 (stereo in doubt; 60) please.
Solution: 174

Exercise: Write down Ki measured for item O=Cc1cc2c3ccccc3nc-2c[nH]1
Solution: 0.0623

Exercise: Provide only the value of recorded Ki for CC(O)c1cc2c3ccccc3nc-2c[nH]1 (centres undefined)
Solution: 3.16

Exercise: Supply Ki value. Item: COC(=O)c1cc2c(cn1)[nH]c1ccccc12
Solution: 0.00105

Exercise: Consider the compound COC(=O)c1cc2c(cn1)[nH]c1ccc(O)cc12 and give its recorded Ki.
Solution: 0.00266

Exercise: Tell me its Ki given CCC1NC(C(=O)OC)Cc2c1[nH]c1ccc(O)cc21 (stereo in doubt; 14a+14b) as the entry.
Solution: 39

Exercise: Return the recorded Ki value; entry: COC(=O)C1Cc2c([nH]c3ccccc23)C(c2ccccc2)N1 (stereo in doubt; 49)
Solution: 54

Exercise: Indicate its recorded Ki; the compound in question is CCCOC(=O)c1cc2c(cn1)[nH]c1ccccc12
Solution: 0.001

Exercise: For the compound COC(=O)C1=Cc2c([nH]c3ccccc23)C(c2cccnc2)N1 (centres undefined) , give its measured Ki value.
Solution: 6.25

Exercise: In one line, give reported Ki of the entry OCc1cc2c3ccccc3nc-2c[nH]1 .
Solution: 1.47

Exercise: Entry COC(=O)c1cc2ccccc2cn1 needs its Ki filled in; supply it.
Solution: 13.2

----------
What Ki was measured for each of the following?
# TARGET: GABA-A receptor; anion channel
# ASSAY DETAILS: In vitro inhibition of [3H]diazepam binding to benzodiazepine receptor in rat cerebral cortical membrane

Exercise: Determine from records and report Ki for COc1ccc2[nH]c3c(c2c1)C=CNC3
Solution: > 500 µM

Exercise: Return value of Ki for input CN(C)CCc1c[nH]c2ccc(O)cc12 , no commentary.
Solution: > 100 µM

Exercise: In one line, give reported Ki of the entry COC(=O)c1cc2c3ccccc3n(C)c2cn1 .
Solution: > 50 µM

Exercise: Tell me Ki reported for CCC1NC(C(=O)OC)=Cc2c1n(C)c1ccccc21 (stereo unspecified)
Solution: > 100 µM

Exercise: Please report the measured Ki for CCC1NC(C(=O)OC)Cc2c1[nH]c1ccccc21 (stereo unspecified)
Solution: > 100 µM

Exercise: Recall and state the measured Ki for COC(=O)C1Cc2ccccc2CN1 (stereo unspecified) .
Solution: > 100 µM
